molecular target: ERα (Homo sapiens); assay: GeneBLAzer β-lactamase reporter-gene assay, agonist activity, ERα-UAS-bla GripTite cells
Sequence (P03372 311-547 limits assumed): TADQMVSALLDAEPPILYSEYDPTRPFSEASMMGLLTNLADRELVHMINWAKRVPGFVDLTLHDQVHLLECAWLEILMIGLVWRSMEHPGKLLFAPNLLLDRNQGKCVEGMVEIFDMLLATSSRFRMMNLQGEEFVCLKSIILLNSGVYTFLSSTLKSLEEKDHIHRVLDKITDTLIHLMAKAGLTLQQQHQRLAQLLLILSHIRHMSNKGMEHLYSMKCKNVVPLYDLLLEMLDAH
ATTRIBUTE_MEASURED: EC50 (nM)
Give your result in nM as a bare value.

Query: Any idea what EC50 was measured for `COc1ccc(-c2coc3cc(O)ccc3c2=O)cc1O` ?
Response: 2470
